Target: mouse PD-L1 (Mus musculus, UniProt Q9EP73)
Sequence (Q9EP73 19-238 limits assumed): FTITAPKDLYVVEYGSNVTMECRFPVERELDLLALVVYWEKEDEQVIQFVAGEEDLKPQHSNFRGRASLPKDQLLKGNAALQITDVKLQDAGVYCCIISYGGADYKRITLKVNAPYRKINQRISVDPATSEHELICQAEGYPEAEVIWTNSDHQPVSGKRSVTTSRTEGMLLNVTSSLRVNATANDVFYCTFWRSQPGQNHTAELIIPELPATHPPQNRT
measurement kind: IC50

Give recorded IC50 with mouse PD-L1 (Mus musculus, UniProt Q9EP73) for the following compound: Cc1c(Nc2nccc3cc(CN4CC[C@@H](O)C4)cnc23)cccc1-c1cccc(-c2nc3cc(CN4CC[C@@H](C(=O)O)C4)cc(C#N)c3o2)c1C
> 10 µM

---

Target: cynomolgus PD-L1 (Macaca fascicularis, UniProt G7PSE7)
Sequence (G7PSE7 19-239): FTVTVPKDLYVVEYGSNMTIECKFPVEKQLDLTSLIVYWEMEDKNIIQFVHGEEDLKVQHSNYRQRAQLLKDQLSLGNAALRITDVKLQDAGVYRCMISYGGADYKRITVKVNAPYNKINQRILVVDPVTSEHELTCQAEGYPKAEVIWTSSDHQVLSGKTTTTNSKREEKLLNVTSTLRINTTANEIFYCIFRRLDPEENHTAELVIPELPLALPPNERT
Sequence (Q15116 25-167 partner): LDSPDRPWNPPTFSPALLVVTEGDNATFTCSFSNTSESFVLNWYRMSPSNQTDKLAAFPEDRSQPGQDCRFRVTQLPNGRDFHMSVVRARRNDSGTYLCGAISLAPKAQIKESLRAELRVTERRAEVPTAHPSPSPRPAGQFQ
measurement kind: IC50 (nM)
Respond with the bare value in nM.

I'd like to know its IC50. The compound in question is Cc1c(Nc2nccc3cc(CN4CC[C@@H](O)C4)cnc23)cccc1-c1cccc(-c2nc3cc(CN4CC[C@@H](C(=O)O)C4)cc(C#N)c3o2)c1C
4.9

---

Target: UniProtKB Q9NZQ7
Assay: Isogenic MBT2 cell line PD-L1 internalization
Assay type: cell-based
Settings: EC50, PD-L1 internalization (MIH1), MBT2-PD-L1 medium, 16 hours
measurement kind: EC50
Answer format: number, then unit.

I'd like to know its EC50. The compound in question is Cc1c(Nc2nccc3cc(CN4CC[C@@H](O)C4)cnc23)cccc1-c1cccc(-c2nc3cc(CN4CC[C@@H](C(=O)O)C4)cc(C#N)c3o2)c1C
0.4 nM

---

Target: human PD-L2 (Homo sapiens, UniProt Q9BQ51)
Sequence (Q9BQ51 20-219 limits assumed): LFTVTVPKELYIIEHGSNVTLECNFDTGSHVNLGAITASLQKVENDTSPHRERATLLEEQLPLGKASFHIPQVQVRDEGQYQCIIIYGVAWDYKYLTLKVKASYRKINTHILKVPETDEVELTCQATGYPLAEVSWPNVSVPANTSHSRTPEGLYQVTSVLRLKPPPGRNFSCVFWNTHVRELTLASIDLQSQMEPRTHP
measurement kind: IC50

I'd like to know its IC50. The molecule in question is Cc1c(Nc2nccc3cc(CN4CC[C@@H](O)C4)cnc23)cccc1-c1cccc(-c2nc3cc(CN4CC[C@@H](C(=O)O)C4)cc(C#N)c3o2)c1C [INCB086550]
> 10 µM

---

Molecular target: PD-L1 on monocytes (Homo sapiens)
Sequence (Q9NZQ7 19-290): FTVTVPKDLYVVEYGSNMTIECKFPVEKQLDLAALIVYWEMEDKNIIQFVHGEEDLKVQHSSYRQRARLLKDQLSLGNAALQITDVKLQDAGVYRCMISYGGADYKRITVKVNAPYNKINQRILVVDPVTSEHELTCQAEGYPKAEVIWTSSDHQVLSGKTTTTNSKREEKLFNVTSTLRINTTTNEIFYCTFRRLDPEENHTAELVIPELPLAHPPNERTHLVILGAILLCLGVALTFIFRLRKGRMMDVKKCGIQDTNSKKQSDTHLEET
Test: Unoccupied PD-L1 on monocytes in human whole blood
measurement kind: EC50
Answer format: number, then unit.

I'd like to know its EC50. The compound in question is Cc1c(Nc2nccc3cc(CN4CC[C@@H](O)C4)cnc23)cccc1-c1cccc(-c2nc3cc(CN4CC[C@@H](C(=O)O)C4)cc(C#N)c3o2)c1C [INCB086550]
88 nM

---

Biological target: human PD-L1 on MBT2 clones (Homo sapiens, UniProt Q9NZQ7)
Test: Isogenic MBT2 cell line PD-L1 internalization
Format: cell-based
Conditions: EC50, PD-L1 internalization (MIH1), MBT2-PD-L1 high, 16 hours
measurement kind: pEC50
By convention, pEC50 is the negative base-10 log of a molar concentration.

I'd like to know its pEC50. The molecule in question is Cc1c(Nc2nccc3cc(CN4CC[C@@H](O)C4)cnc23)cccc1-c1cccc(-c2nc3cc(CN4CC[C@@H](C(=O)O)C4)cc(C#N)c3o2)c1C
10.00

---

System: PD-1–mediated SHP recruitment
Test: PD-1–SHP reporter assay
Format: cell-based
Conditions: read-out: IC50, SHP recruitment
measurement kind: IC50 (nM)
Respond with the bare value in nM.

Give recorded IC50 with PD-1–mediated SHP recruitment for the following molecule: Cc1c(Nc2nccc3cc(CN4CC[C@@H](O)C4)cnc23)cccc1-c1cccc(-c2nc3cc(CN4CC[C@@H](C(=O)O)C4)cc(C#N)c3o2)c1C
6.3

---

Target: PD-L1 (Homo sapiens, UniProt Q9NZQ7)
measurement kind: IC50 (nM)
Respond with the bare value in nM.

I'd like to know its IC50. The molecule in question is Cc1c(Nc2nccc3cc(CN4CC[C@@H](O)C4)cnc23)cccc1-c1cccc(-c2nc3cc(CN4CC[C@@H](C(=O)O)C4)cc(C#N)c3o2)c1C [INCB086550]
3.1
